Read-out: Transforming Growth Factor (TGFA), TGFA (gene 7039)
Test: LTEA_HepaRG_TGFA: Life Technologies and Expression Analysis (LTEA) Assay for Transforming Growth Factor (TGFA) using HepaRG (AID 2283532)
Details: mRNA level, 48 h; actives raise or lower the signal
Activity calls are given as the source filed them. The calls were made as follows: active = hit-call score of the fitted dose curve at least 0.9, where 1 is the maximum; inactive = score below 0.9.
Valid outcomes are listed here; reply with one: active, inactive

Sample answers from the record:
1) O=C(O)Cn1c(=O)n(Cc2ccc(Br)cc2F)c(=O)c2ccc(Cl)cc21 | inactive
2) CN(C)c1ccc(C(=C2C=CC(=[N+](C)C)C=C2)c2ccc(N(C)C)cc2)cc1 | inactive

What outcome does the record of this test show for O=CCCCC=O ? inactive

Status in this test for Cc1occc1C(=O)Nc1ccc(C(=O)N2CCC(F)(F)/C(=C\C(=O)N3CCC(N4CCCCC4)CC3)c3ccccc32)cc1 ? inactive

What call does the record list for O=c1c(-c2ccc(O)cc2)coc2cc(O)cc(O)c12 ? inactive

For CN(C)C(=O)C1(N2CCCCC2)CCN(CC[C@@]2(c3ccc(Cl)c(Cl)c3)CN(C(=O)c3ccccc3)CCO2)CC1 , which call appears in the assay record? inactive

Per the records of this test, what outcome belongs to CCO[Si](CCCNC(N)=O)(OCC)OCC ? inactive

Which outcome was entered for the compound CC/C(=C(/CC)c1ccc(O)cc1)c1ccc(O)cc1 in this test? active

Call for entry Cc1ccc2oc(CN(Cc3ccccc3)C(=O)Nc3c(F)cc(F)cc3F)c(-c3ccc(Cl)cc3)c2c1 : inactive

What call does the record list for O=C(O)Cc1cc(I)c(Oc2ccc(O)c(I)c2)c(I)c1 ? active

* * *

Read-out: Transforming Growth Factor (TGFA), TGFA (gene 7039)
Assay: LTEA_HepaRG_TGFA: Life Technologies and Expression Analysis (LTEA) Assay for Transforming Growth Factor (TGFA) using HepaRG (AID 2283532)
Details: mRNA level, 48 h; actives raise or lower the signal
Experimental: LTEA_HepaRG is a cell based, multiplexed-readout assay that uses HepaRG, a human liver cell line, with measurements taken at 48 hours after chemical dosing on a 96-well plate.LTEA_HepaRG_TGFA is one of 102 assay component(s) measured in the LTEA HepaRG cell culture assay. It is a marker of Cell proliferation, survival, death.Data from the assay component LTEA_HepaRG_TGFA was analyzed into 1 endpoint. […]
Calls of active or inactive are those of the source. Rule for the calls: active = hit-call score of the fitted dose curve at least 0.9, where 1 is the maximum; inactive = score below 0.9.
quantity: outcome

1. O=C=NCCCCCCN=C=O | inactive
2. CCCOC(=O)c1cc(O)c(O)c(O)c1 | inactive
3. COc1cc(C(=O)NC2CCN(C)CC2)ccc1Nc1ncc2c(n1)N(C1CCCC1)CC(F)(F)C(=O)N2C | inactive
